Readings of A35 (-) for the listed compounds
Assay: 35°C color optical density (A35): absorbancy difference ε(240)-ε(0) after 240 s light irradiation at 35°C
Type: physicochemical
Details: photochromic laminate by coating method, 240 s irradiation
From the text: • [1] Maximum Absorption Wavelength (λmax): The maximum absorption wavelength after color development, measured using a spectrophotometer (instantaneous multichannel photodetector MCPD3000) manufactured by Otsuka Electronics Co., Ltd. was used as an indicator for the color tone during the color development. • [2] […]

Worked examples follow.
{"Compound": "CCCC1(CCC)c2ccccc2-c2c1c1c(c3cc(OC)c(N(c4ccccc4)c4ccc(C)cc4)cc23)OC(c2ccc(OC)cc2)(c2ccc(OC)cc2)C=C1", "A35 (-)": "1.08 -"}
{"Compound": "COc1ccc(C2(c3ccc(N4CCOCC4)cc3)C=Cc3c4c(c5cc(N6CCOc7ccccc76)c(C)cc5c3O2)-c2ccc(OC)cc2C4(CCCCF)CCCCF)cc1 (centres unmarked)", "A35 (-)": "0.83 -"}
{"Compound": "CCCC1(CCC)c2cc(C)ccc2-c2c1c1c(c3cc(OC)c(N(C)c4ccccc4)cc23)OC(c2ccc(OC)cc2)(c2ccc(OC)cc2)C=C1", "A35 (-)": "0.88 -"}
{"Compound": "CCCC1(CCC)c2ccccc2-c2c1c1c(c3cc(OC)c(N(C)c4ccccc4)cc23)OC(c2ccc(OC)cc2)(c2ccc(N(c3ccccc3)c3ccccc3)cc2)C=C1 (centres unmarked)", "A35 (-)": "0.87 -"}

Query string: Item "CCCCC1(CCCC)c2ccccc2-c2c1c1c(c3cc(OC)c(N(c4ccc(F)cc4)c4ccc(F)cc4)cc23)OC(c2ccc(OC)cc2)(c2ccc(OC)cc2)C=C1" has what recorded A35 (-)?
Result string: 0.92 -
